B1: CAMK2A (parent)
chain: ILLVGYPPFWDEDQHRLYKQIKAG

Variants of: B1
run.description: protein stability index of a GFP-peptide fusion (GPS, HEK-293T) (PSI 1-6); higher = more stable;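 further: lentivirally expressed fusions sorted by FACS into six bins by GFP to DsRed ratio, PSI derived from sequencing read proportions per bin multiplied by bin number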
test.settings: c terminus: a fixed tail appended
result.type: protein stability index
Number, no unit, nothing else.

Worked cases, answers included:
| variant.spec | protein stability index |
| --- | --- |
| I21A | 1.79 |
| Y18G | 2.79 |
| V4N | 1.92 |
| Q14Y | 2.54 |
| H15G | 2.21 |

Dear colleague, please send me the reported protein stability index for I21K when you can.
1.65

Dear colleague, please send me the reported protein stability index for Y6C when you can.
1.62

All figures here come from the supplement of paper PMC10567573.
